- System: U2OS
- Protocol notes: Multiplex assay against U2OS
- Assay type: toxicity, cell-based
- Experimental setup: human, 24 h, 10 µM, compound concentration 10 uM, replicate 1
We begin with a simple list: items and their reported Population Mitochondria Different-Phenotype (%).
Reply with the number and its unit after it.

Molecule: CNc1nc(NCc2ccc(NS(C)(=O)=O)cc2Cl)cc(-c2ccccn2)n1
Result: 23%

Request: Request - read-out Population Mitochondria Different-Phenotype (%) | tested on U2OS | molecule Cc1cc(C)cc(-c2cnc3cc(Cl)c(-c4cccc(O)c4)cc3c2OCCCN)c1
Response: 66%

Request: Another: CCN(CC)CCCCNc1ncc2cc(-c3cc(OC)cc(OC)c3)c(NC(=O)NC(C)(C)C)nc2n1
Response: 48%

Request: Now this one: CN1CCC[C@@H]1CCO[C@](C)(c1ccccc1)c1ccc(Cl)cc1.O=C(O)/C=C/C(=O)O [CLEMASTINE FUMARATE]
Response: 100%

Request: Query Cn1cc(-c2[nH]c3cc(NC(=O)[C@H](N)C4CCCCC4)cc4c3c2C=NNC4=O)cn1 next
Response: 16%

Request: Another molecule to check: CN(C)C(=O)/C(C#N)=C/c1ccc(-c2nc3cnc4[nH]ccc4c3n2C2CCCCC2)o1
Response: 45%

Request: Follow-up item: CC(C)(O)CNc1ncc(-c2ccnc(Nc3ccnc(Cl)c3)n2)c(CC2CC2)n1
Response: 100%

Request: Queued: CC[C@H](C)C(=O)O[C@H]1C[C@@H](C)C=C2C=C[C@H](C)[C@H](CC[C@@H]3C[C@@H](O)CC(=O)O3)[C@H]21
Response: 7%

###

- System: HEK-293T
- Protocol notes: Incucyte cell viability with HEK293T; also: filed as whole numbers so only -1 and 0 and 1 occur
- Format: toxicity, cell-based
- Experimental setup: human, 24 h, 10 µM, compound concentration 10 uM, replicate number 2, timepoint 24 hours
Measurement type: Growth Rate
Enter a number only.

Compound: O=C(c1ccc(F)cc1)N1CC(COc2ccc(Br)cc2)(C(=O)O)C1
Growth Rate: 0

Compound: CN(C)CC#Cc1ccc(OCCCc2sc(N3CCc4cccc(C(=O)Nc5nc6ccccc6s5)c4C3)nc2C(=O)O)c(F)c1
Growth Rate: 1

Compound: CCOc1cc(N2CCC(O)CC2)ccc1Nc1ncc2c(n1)N(C)c1ccccc1C(=O)N2C
Growth Rate: 0

Compound: Clc1cccc(-c2nnnn2Cc2cccnc2)c1Cl
Growth Rate: 0

Compound: Nc1nc(NCc2ccccc2)nc(-c2ccccc2CO)n1
Growth Rate: 1

Request: Quick one: Growth Rate for Cc1c(OCc2cccc(-c3ccc(C(=O)O)cc3)c2)cc2c(c1C)C(=O)C(C1CCCC1)C2 (centres undefined) ?
Response: 1

Request: Can you handle N#CC(Cc1ccc(O)cc1)c1ccc(O)cc1 (centres undefined) next?
Response: 1

###

- Test system: Fibroblast
- Protocol notes: Multiplex assay against human fibroblast
- Assay type: toxicity, cell-based
- Experimental setup: 12 h, 10 µM, compound concentration 10 uM, replicate 2
Measurement type: Population Fragmented Nuclei (%)
Provide the reading as a plain figure in %.

The cases that follow already have their Population Fragmented Nuclei (%) on record.
Molecule: c1cn2cc(-c3ccc4cn[nH]c4c3)nc(Nc3ccc(N4CCOCC4)cc3)c2n1
Test system: Fibroblast
Population Fragmented Nuclei (%): 30

Molecule: COc1cc2nccc(Oc3ccc(NC(=O)Nc4cc(C)on4)c(Cl)c3)c2cc1OC.O
Test system: Fibroblast
Population Fragmented Nuclei (%): 11

Molecule: C=CC(=O)Nc1cc2c(Nc3ccc(F)c(Cl)c3)ncnc2cc1OCCCN1CCOCC1.Cl.Cl [CANERTINIB DIHYDROCHLORIDE]
Test system: Fibroblast
Population Fragmented Nuclei (%): 60

Molecule: CN1CCCC(n2nc(Cc3ccc(Cl)cc3)c3ccccc3c2=O)CC1.Cl (configuration not stated) [AZELASTINE HYDROCHLORIDE]
Test system: Fibroblast
Population Fragmented Nuclei (%): 14

Molecule: CNc1nc(NCc2ccc(NS(C)(=O)=O)cc2Cl)cc(-c2ccccn2)n1
Test system: Fibroblast
Population Fragmented Nuclei (%): 6

Request: Entry CC(C)NCC(O)COc1ccc(CCOCC2CC2)cc1.Cl (configuration not stated) [BETAXOLOL HYDROCHLORIDE] has what Population Fragmented Nuclei (%)?
Response: 9

Request: Queued: CC(C)(O)CNc1ncc(-c2ccnc(Nc3ccnc(Cl)c3)n2)c(CC2CC2)n1
Response: 10

Request: Same question for CN(C)C(=O)/C(C#N)=C/c1ccc(-c2nc3cnc4[nH]ccc4c3n2C2CCCCC2)o1 please.
Response: 20

Request: Now give it for Cc1nc(-c2cn3c(n2)-c2ccc(-c4cnn(C(C)(C)C(N)=O)c4)cc2OCC3)n(C(C)C)n1 too.
Response: 47

Request: Record: Cc1c(-c2ccc(O)cc2)n(Cc2ccc(OCCN3CCCCCC3)cc2)c2ccc(O)cc12
Response: 7

Request: Now give it for O=C(NCCN1CCOCC1)c1ccc2c(c1)C(=O)c1ccc(Nc3ccc(F)c(NC(=O)c4ccccc4)c3)cc1CC2 too.
Response: 57

Request: Continue with CN1CCN(c2ccc(OC(F)(F)F)c(Nc3ncc4c(n3)-c3c(c(C(N)=O)nn3CCO)CC4)c2)CC1
Response: 9

The measured values listed here are drawn from ChEMBL document CHEMBL4689842.
